The values you see were collected from patent US11925624B2.

Assay: Phase 1 single ascending dose (Part A) pharmacokinetics, fasted state
Type: in vivo, human
Details: human, plasma, oral, 25 mg single dose (A1), read-out: Vz/F(norm)
Protocol: A Phase 1, randomized, blinded, placebo-controlled safety, tolerability, and pharmacokinetic study of Compound I in 80 healthy adult subjects was conducted. This study was a randomized, blinded, placebo-controlled, ascending-dose study to evaluate the safety, tolerability, and pharmacokinetic (PK) of single (Part A) and multiple (Part B) doses of Compound I in healthy subjects. […]

Molecule	Uom	Vd/F
Cn1cc(-c2cn(-c3ccc(OC(F)(F)F)cc3)c(=O)c3ncn(C)c23)cn1 [Compound I]	L/kg	0.384

----------
assay: Phase 1 Part A proton pump inhibitor (rabeprazole) effect on single-dose pharmacokinetics; type: in vivo, human; settings: human, plasma, oral, 800 mg single dose (A5), Fed, Low-fat, +20 mg Rabeprazole QD x 3
Readout type: Cmax (ng/mL)

Structure	Readout type	Result value
Cn1cc(-c2cn(-c3ccc(OC(F)(F)F)cc3)c(=O)c3ncn(C)c23)cn1	Cmax	10000

----------
assay: Phase 1 single ascending dose (Part A) pharmacokinetics, fasted state; format: in vivo, human; conditions: human, plasma, oral, 800 mg single dose (A5), read-out: Vz/F(norm)

Compound	Vd/F / L/kg
Cn1cc(-c2cn(-c3ccc(OC(F)(F)F)cc3)c(=O)c3ncn(C)c23)cn1 [Compound I]	3.26

----------
assay: Phase 1 single ascending dose (Part A) pharmacokinetics, fasted state; assay type: in vivo, human; conditions: human, plasma, oral, 75 mg single dose (A2)

Compound	Uom	AUC(0-inf)
Cn1cc(-c2cn(-c3ccc(OC(F)(F)F)cc3)c(=O)c3ncn(C)c23)cn1 [Compound I]	ng·h/mL	13000

----------
assay: Phase 1 Part A food effect (high-fat / low-fat breakfast) on single-dose pharmacokinetics; format: in vivo, human; conditions: human, plasma, oral, 400 mg, 400 mg single dose (A4), Fed, High-fat; read-out: Vz/F(norm)
Readout type: Vd/F (L/kg)

Compound	Readout type	Result value
Cn1cc(-c2cn(-c3ccc(OC(F)(F)F)cc3)c(=O)c3ncn(C)c23)cn1 [Compound I]	Vd/F	0.826

----------
test: Phase 1 single ascending dose (Part A) pharmacokinetics, fasted state; type: in vivo, human; conditions: human, plasma, oral, 200 mg single dose (A3)

Compound	Cmax, ng/mL
Cn1cc(-c2cn(-c3ccc(OC(F)(F)F)cc3)c(=O)c3ncn(C)c23)cn1 [Compound I]	3060

----------
Test: Phase 1 single ascending dose (Part A) pharmacokinetics, fasted state
Type: in vivo, human
Conditions: human, plasma, oral, 1600 mg, 1600 mg single dose (A6), median, read-out: tmax
Method: A Phase 1, randomized, blinded, placebo-controlled safety, tolerability, and pharmacokinetic study of Compound I in 80 healthy adult subjects was conducted. This study was a randomized, blinded, placebo-controlled, ascending-dose study to evaluate the safety, tolerability, and pharmacokinetic (PK) of single (Part A) and multiple (Part B) doses of Compound I in healthy subjects. […]
Readout type: Tmax (h)

Structure	Readout type	Uom	Result value
Cn1cc(-c2cn(-c3ccc(OC(F)(F)F)cc3)c(=O)c3ncn(C)c23)cn1	Tmax	h	2

----------
assay: Phase 1 single ascending dose (Part A) pharmacokinetics, fasted state; type: in vivo, human; conditions: human, plasma, oral, 400 mg, 400 mg single dose (A4), median, read-out: tmax
Readout type: Tmax

Structure	Result value
Cn1cc(-c2cn(-c3ccc(OC(F)(F)F)cc3)c(=O)c3ncn(C)c23)cn1	2.5 h

----------
assay: Phase 1 multiple ascending dose (Part B) pharmacokinetics after low-fat meal; type: in vivo, human; details: human, plasma, oral; 200 mg BID (B1), Day 7, low-fat meal
Readout type: half-life

Structure	Readout type	Result value
Cn1cc(-c2cn(-c3ccc(OC(F)(F)F)cc3)c(=O)c3ncn(C)c23)cn1	half-life	4.89 h

----------
assay: Phase 1 single ascending dose (Part A) pharmacokinetics, fasted state; type: in vivo, human; details: human, plasma, oral, 800 mg single dose (A5)

Structure	Uom	Cmax
Cn1cc(-c2cn(-c3ccc(OC(F)(F)F)cc3)c(=O)c3ncn(C)c23)cn1	ng/mL	5910

----------
test: Phase 1 multiple ascending dose (Part B) pharmacokinetics after low-fat meal; format: in vivo, human; conditions: human, plasma, oral, 275 mg, 275 mg BID (B3), Day 1, low-fat meal; read-out: AUC0-τ
Readout type: AUC (ng·h/mL)

Compound	Uom	Result value
Cn1cc(-c2cn(-c3ccc(OC(F)(F)F)cc3)c(=O)c3ncn(C)c23)cn1 [Compound I]	ng·h/mL	37700

----------
test: Phase 1 single ascending dose (Part A) pharmacokinetics, fasted state; assay type: in vivo, human; conditions: human, plasma, oral, 25 mg single dose (A1), read-out: Vz/F

Structure	Uom	Vd/F
Cn1cc(-c2cn(-c3ccc(OC(F)(F)F)cc3)c(=O)c3ncn(C)c23)cn1	L	28.3

----------
test: Phase 1 Part A food effect (high-fat / low-fat breakfast) on single-dose pharmacokinetics; type: in vivo, human; conditions: human, plasma, oral, 400 mg, 400 mg single dose (A4), Fed, Low-fat; median; read-out: tmax

Compound	Tmax (h)
Cn1cc(-c2cn(-c3ccc(OC(F)(F)F)cc3)c(=O)c3ncn(C)c23)cn1 [Compound I]	2.5

----------
assay: Phase 1 Part A food effect (high-fat / low-fat breakfast) on single-dose pharmacokinetics; format: in vivo, human; settings: human, plasma, oral, 400 mg, 400 mg single dose (A4), Fed, Low-fat; read-out: Vz/F(norm)

Structure	Vd/F
Cn1cc(-c2cn(-c3ccc(OC(F)(F)F)cc3)c(=O)c3ncn(C)c23)cn1	0.904 L/kg

----------
experiment: Phase 1 multiple ascending dose (Part B) pharmacokinetics after low-fat meal; type: in vivo, human; conditions: human, plasma, oral; 525 mg QD (B2), Day 7, low-fat meal

Structure	half-life / h
Cn1cc(-c2cn(-c3ccc(OC(F)(F)F)cc3)c(=O)c3ncn(C)c23)cn1	6.25

----------
assay: Phase 1 multiple ascending dose (Part B) pharmacokinetics after low-fat meal; assay type: in vivo, human; conditions: human, plasma, oral, 275 mg, 275 mg BID (B3), Day 7, low-fat meal
Readout type: Cmax (ng/mL)

Compound	Readout type	Result value
Cn1cc(-c2cn(-c3ccc(OC(F)(F)F)cc3)c(=O)c3ncn(C)c23)cn1 [Compound I]	Cmax	7500

----------
assay: Phase 1 Part A proton pump inhibitor (rabeprazole) effect on single-dose pharmacokinetics; assay type: in vivo, human; conditions: human, plasma, oral, 400 mg single dose (A4), Fasted, +20 mg Rabeprazole QD x 3; read-out: Vz/F

Structure	Vd/F (L)
Cn1cc(-c2cn(-c3ccc(OC(F)(F)F)cc3)c(=O)c3ncn(C)c23)cn1	138

----------
experiment: Phase 1 multiple ascending dose (Part B) pharmacokinetics after low-fat meal; assay type: in vivo, human; settings: human, plasma, oral; 275 mg BID (B3), Day 7, low-fat meal

Structure	Uom	half-life
Cn1cc(-c2cn(-c3ccc(OC(F)(F)F)cc3)c(=O)c3ncn(C)c23)cn1	min	338

----------
assay: Phase 1 multiple ascending dose (Part B) pharmacokinetics after low-fat meal; assay type: in vivo, human; settings: human, plasma, oral, 200 mg, 200 mg BID (B1), Day 7, low-fat meal; read-out: AUC0-τ

Structure	AUC / ng·h/mL
Cn1cc(-c2cn(-c3ccc(OC(F)(F)F)cc3)c(=O)c3ncn(C)c23)cn1	38800

----------
assay: Phase 1 Part A food effect (high-fat / low-fat breakfast) on single-dose pharmacokinetics; format: in vivo, human; conditions: human, plasma, oral, 400 mg, Table 3, 4th section, head as printed:, n = 6; read-out: LS Means AUC0-t (Test)
Readout type: AUC(0-t) (µg·h/mL)

Structure	Result value
Cn1cc(-c2cn(-c3ccc(OC(F)(F)F)cc3)c(=O)c3ncn(C)c23)cn1	159

----------
Assay: Phase 1 Part A food effect (high-fat / low-fat breakfast) on single-dose pharmacokinetics
Assay type: in vivo, human
Conditions: human, plasma, oral, 800 mg, 800 mg single dose (A5), Fed, Low-fat; median; read-out: tmax
Source text: This study was a randomized, blinded, placebo-controlled, ascending-dose study to evaluate the safety, tolerability, and pharmacokinetic (PK) of single (Part A) and multiple (Part B) doses of Compound I in healthy subjects. […]

Structure	Tmax [h]
Cn1cc(-c2cn(-c3ccc(OC(F)(F)F)cc3)c(=O)c3ncn(C)c23)cn1	3

----------
test: Phase 1 single ascending dose (Part A) pharmacokinetics, fasted state; type: in vivo, human; details: human, plasma, oral, 25 mg single dose (A1)
Readout type: Cmax (ng/mL)

Structure	Uom	Result value
Cn1cc(-c2cn(-c3ccc(OC(F)(F)F)cc3)c(=O)c3ncn(C)c23)cn1	ng/mL	913

----------
experiment: Phase 1 Part A proton pump inhibitor (rabeprazole) effect on single-dose pharmacokinetics; format: in vivo, human; details: human, plasma, oral, 800 mg single dose (A5), Fed, Low-fat, +20 mg Rabeprazole QD x 3; read-out: Vz/F(norm)

Structure	Vd/F
Cn1cc(-c2cn(-c3ccc(OC(F)(F)F)cc3)c(=O)c3ncn(C)c23)cn1	1.35 L/kg
